- PROTOCOL DESCRIPTION: fission yeast growth modulation, primary screen, strain 972, OD600, 24 h, no modulator (AID 1090);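 further: basal condition with compound alone and no growth modifier present; test concentration not given here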
- RUN CONDITIONS: S. pombe 972 growth, higher = more signal, called active from +8 up or from −8 down
RESULT TYPE: z-score
Output: the number by itself.

// worked examples, z-score included
| COMPOUND | READOUT VALUE |
| --- | --- |
| O=C1O[C@H](c2ccccc2)[C@H](c2ccccc2)N2[C@H]1[C@@H](C(=O)O)[C@]1(C(=O)Nc3ccc(C#CC4=CCCCC4)cc31)[C@H]2c1ccccc1OCCO | 1.1 |
| COc1ccc(COC2OC[C@]3(C)[C@H]4C5=C(CN3C(=O)OC(C)(C)C)[C@H](C)C(CO)C(CO)C5CC[C@@H]24)cc1 (some centres not stated) | 0.805 |
| COC(=O)c1c(CC[C@@H](CO)NC(=O)N[C@@H](C)Cn2cc(C3(O)CCCCC3)nn2)oc(C(C)=O)c1C(=O)OC | -0.261 |
| O=C(NCc1ccccc1)[C@@H]1c2ccccc2C(=O)N(CC23CC4CC(CC(C4)C2)C3)[C@H]1c1ccc(CO)cc1 | -0.0538 |
| COc1cc(CO)cc(I)c1O[C@H]1C=C(C(=O)NCCO)C[C@@H](N(CCN2CCOCC2)C(=O)C2CCOC2)[C@@H]1O (some centres not stated) | -0.62 |
| CC1CC/C=C\[C@H]2OC34C=CCN(Cn5nnc6ccccc65)C(=O)[C@H]3N(C(CO)C(C)C)C(=O)[C@@H]4C2C(=O)O1 (some centres not stated) | -1.02 |

Read the next record carefully.
Query: Report z-score for O=C1NC(=O)C2C1C=CC(C(O)C(c1ccccc1)c1ccccc1)N2Nc1ccc(Cl)cc1Cl (configuration not stated) please.
Reply: -0.767

* * *

As shown below, each of these compounds has a reported z-score value.
- PROTOCOL DESCRIPTION: splicing luciferase reporter signal modulators, primary screen, spliceosome inhibition project, cell-based, HEK293, splice +/- reporter (AID 1101);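 further: HEK293 cells carrying a splicing-competent luciferase reporter gene; test concentration not given here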
- RUN CONDITIONS: luminescence, 24 h, higher = more signal, called active from +8 up or from −8 down
Output: the number by itself.

// worked examples, z-score included
| COMPOUND | RESULT TYPE | READOUT VALUE |
| --- | --- | --- |
| CC(C)C(=C=CC[C@@H](O)c1ccccc1OCCO)CCO | z-score | -0.0616 |
| O=C1O[C@@H](c2ccccc2)[C@@H](c2ccccc2)N2[C@@H](c3ccccc3OCCO)[C@]3(C(=O)Nc4ccc(C#CC5=CCCCC5)cc43)[C@@H](C(=O)Nc3nc4ccccc4s3)[C@H]12 | z-score | -0.459 |
| O=C(NCc1ccccc1)[C@@]1(CCS(=O)(=O)c2ccccc2)N=C(c2ccc(OCCCO)cc2)O[C@H]1c1ccccc1 | z-score | 0.0308 |
| COc1cc2c(cc1O)C=[N+](Cc1cccc(OC(F)(F)F)c1)CC2 | z-score | -0.663 |
| CCOC(=O)[C@H]1CC=C2CC1C(=O)N1CCC[C@@H]1[C@@H]2O[Si](C)(C)C(C)(C)C (some centres not stated) | z-score | 0.582 |

Query: Report z-score for `COCCOC(=O)N1C(=O)[C@@]2(c3cc(C#Cc4ccc(OC)cc4)ccc31)[C@H](c1ccccc1OCCO)N1[C@H](c3ccccc3)[C@H](c3ccccc3)OC(=O)[C@H]1[C@@H]2C(=O)N1CCN(c2ncccn2)CC1` please.
Reply: -0.0173

Query: Report z-score for COc1ccc(C(O)C2C=CC3C(=O)N(C)C(=O)C3N2N2CCCCC2)c2ccccc12 (configuration not stated) please.
Reply: 1.28

Every entry's value here was drawn from PubChem BioAssay.
